Listed here are binders together with their documented koff.
targetDesc: T1, human LILRB4 extracellular domain (ECD) recombinant protein (human, UniProt Q8NHJ6 22-259)
T1 construct: extracellular domain; also called LILRB4 ECD; LILRB4-ECD
experiment: Octet
Unit s⁻¹ implied. Number only.

binder	result
h193 antibody No. 23 (h193-H4 / h193-K1) (antibody, V domains shown) VH: EVQLVESGGGLVQPGGSLRLSCAASGFSLSSSYWISWVRQAPGKGLEWVSSIDSGSVGITYYATWAKGRFTISRDNSKNTLYLQMNSLRAEDTAVYYCARHGDNWALDLWGQGTLVTVSS VL: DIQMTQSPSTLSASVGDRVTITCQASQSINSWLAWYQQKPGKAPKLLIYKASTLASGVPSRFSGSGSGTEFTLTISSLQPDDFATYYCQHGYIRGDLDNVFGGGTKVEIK	0.000731
h193 antibody No. 31 (h193-H6 / h193-K1) (antibody, V domains shown) VH: EVQLVESGGGLVQPGGSLRLSCAASGFSLSSSYWISWVRQAPGKGLEWIGSIDSGSVGITYYATSAKGRFTISRDNSKNTLYLQMNSLRAEDTAVYYCARHGDNWALDLWGQGTLVTVSS VL: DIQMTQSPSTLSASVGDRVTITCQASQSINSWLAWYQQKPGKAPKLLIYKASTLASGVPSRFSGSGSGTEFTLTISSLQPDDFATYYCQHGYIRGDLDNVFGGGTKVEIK	0.000376
h193 antibody No. 32 (h193-H6 / h193-K2) (antibody, V domains shown) VH: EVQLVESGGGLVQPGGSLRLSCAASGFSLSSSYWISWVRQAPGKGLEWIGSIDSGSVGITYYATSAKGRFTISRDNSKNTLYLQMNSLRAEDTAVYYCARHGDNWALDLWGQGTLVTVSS VL: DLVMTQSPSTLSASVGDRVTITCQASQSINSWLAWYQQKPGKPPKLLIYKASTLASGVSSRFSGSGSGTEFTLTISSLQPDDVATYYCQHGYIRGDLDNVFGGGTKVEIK	0.000362

// next entry
(Q) State, in one line, measured koff of h193 antibody No. 24 (h193-H4 / h193-K2) (antibody, V domains shown) VH: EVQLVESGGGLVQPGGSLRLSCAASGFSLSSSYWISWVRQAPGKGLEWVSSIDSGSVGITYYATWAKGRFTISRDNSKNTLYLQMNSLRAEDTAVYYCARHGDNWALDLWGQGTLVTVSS VL: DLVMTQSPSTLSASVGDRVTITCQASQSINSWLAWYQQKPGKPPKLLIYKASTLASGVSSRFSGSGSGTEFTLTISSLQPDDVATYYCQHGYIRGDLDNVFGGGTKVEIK
(A) 0.000595
